- Tgt: T1, human GIP receptor (human, UniProt P48546 22-466)
- T1 sequence (looked up): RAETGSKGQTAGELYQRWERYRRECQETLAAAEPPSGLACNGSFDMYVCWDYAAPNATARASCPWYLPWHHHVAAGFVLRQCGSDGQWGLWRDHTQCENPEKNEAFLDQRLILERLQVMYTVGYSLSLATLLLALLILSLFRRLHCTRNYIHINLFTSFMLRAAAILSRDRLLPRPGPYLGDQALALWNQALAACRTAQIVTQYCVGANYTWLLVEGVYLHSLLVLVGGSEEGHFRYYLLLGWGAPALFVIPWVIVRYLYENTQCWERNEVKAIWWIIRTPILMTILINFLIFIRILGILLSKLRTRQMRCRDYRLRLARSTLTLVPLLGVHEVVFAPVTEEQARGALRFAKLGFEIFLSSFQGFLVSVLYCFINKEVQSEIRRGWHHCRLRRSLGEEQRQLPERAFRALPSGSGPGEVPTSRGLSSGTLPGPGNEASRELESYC
- Procedure Details: cell-based or functional assay
Positions of bridges follow the written chain, without caps; N, C: chain ends. Non-standard residues stand in square brackets, D forms with d. No end group written: not given here. Aib = CC(C)(N)C(=O)O
Measure Name: In vitro Activity Compared to Native Peptide (%) vs. GIP
# number only, unit % dropped from output

Example entries begin here.
> print(dat)
                                     binder  measured
1  H[Aib]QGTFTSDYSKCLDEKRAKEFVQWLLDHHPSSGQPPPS (bridge 16-20) [triple agonist of SEQ ID NO: 65]      11.6
2  H[Aib]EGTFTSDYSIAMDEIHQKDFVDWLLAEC (bridge 16-20) [triple agonist of SEQ ID NO: 54]       0.1
3  H[Aib]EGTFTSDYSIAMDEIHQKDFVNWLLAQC (bridge 16-20) [triple agonist of SEQ ID NO: 53]       1.3

Qu. Recorded In vitro Activity Compared to Native Peptide (%) vs. GIP for H[Aib]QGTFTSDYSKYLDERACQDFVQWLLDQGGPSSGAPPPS [triple agonist of SEQ ID NO: 27] , please?
Ans. 0.9

Qu. Recorded In vitro Activity Compared to Native Peptide (%) vs. GIP for H[Aib]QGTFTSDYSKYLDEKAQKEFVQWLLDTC (bridge 16-20) [triple agonist of SEQ ID NO: 30] , please?
Ans. 0.8

Qu. Recorded In vitro Activity Compared to Native Peptide (%) vs. GIP for Y[Aib]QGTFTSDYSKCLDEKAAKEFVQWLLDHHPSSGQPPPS (bridge 16-20) [triple agonist of SEQ ID NO: 68] , please?
Ans. 107

Qu. Recorded In vitro Activity Compared to Native Peptide (%) vs. GIP for Y[Aib]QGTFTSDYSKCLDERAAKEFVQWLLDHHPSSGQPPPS (bridge 16-20) [triple agonist of SEQ ID NO: 69] , please?
Ans. 62.8

Qu. Recorded In vitro Activity Compared to Native Peptide (%) vs. GIP for Y[Aib]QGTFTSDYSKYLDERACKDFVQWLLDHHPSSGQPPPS (bridge 16-20) [triple agonist of SEQ ID NO: 71] , please?
Ans. 94.7
